Target System: Human IL-17A重组蛋白 (IL-17A-His) (human, UniProt Q16552 24-155, biotin label in the ELISA of Example 2 (Biotin-IL-17A-His); site not stated)
Sequence (Q16552 other isoform, or with tags, fused parts or gaps limits assumed): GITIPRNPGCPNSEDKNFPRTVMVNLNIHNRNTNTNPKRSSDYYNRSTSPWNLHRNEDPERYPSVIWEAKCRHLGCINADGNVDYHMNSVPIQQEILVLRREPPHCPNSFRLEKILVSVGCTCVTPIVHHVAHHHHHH
Assay Protocol: cell-based or functional assay
IC50, 阻断活性 (reporter cells) by entry:
Give a bare numeral; the unit µg/mL is implied.

Field: example entries. Status: answers known.
[
  {
    "Binder": "单域抗体(2)(1-F2) (Fc fusion) QVQLVESGGGLVQPGGSMRLSCAASTIGLSIYSGAWYRQAAGKQRELVARITRRGVTNYADSVKGRFTISKDNAKNTVSLEMNSLKPEDTAVYYCNVGGEDGYWGQGTQVTVSS",
    "IC50, 阻断活性 (reporter cells) [µg/mL]": 14.2
  },
  {
    "Binder": "Ixekizumab (antibody, human IgG4 S228P, kappa, V domains shown, Made in house from the variable regions cloned into pcDNA3.4-hIgG4 and pcDNA3.4-hIgKc vectors; positive control; also called 阳性对照抗体Ixekizumab; 对照抗体Ixekizumab) VH: QVQLVQSGAEVKKPGSSVKVSCKASGYSFTDYHIHWVRQAPGQGLEWMGVINPMYGTTDYNQRFKGRVTITADESTSTAYMELSSLRSEDTAVYYCARYDYFTGTGVYWGQGTLVTVSS VL: DIVMTQTPLSLSVTPGQPASISCRSSRSLVHSRGNTYLHWYLQKPGQSPQLLIYKVSNRFIGVPDRFSGSGSGTDFTLKISRVEAEDVGVYYCSQSTHLPFTFGQGTKLEIKR",
    "IC50, 阻断活性 (reporter cells) [µg/mL]": 1.36
  },
  {
    "Binder": "单域抗体(1)(1-C11) (Fc fusion) DVQLVESGGGLVQPGGSLRLSCAASESLLRLYAMGWYRQLPGQEREWVAIHTTSDTTNYRDSVKGRFTLSRDVATNTIYLQMTSLKPEDTAVYYCHVTSMRDSQNYWGQGTQVTVSS",
    "IC50, 阻断活性 (reporter cells) [µg/mL]": 18.8
  }
]

Now, please, on to the next binder.
Data request, read-out IC50, 阻断活性 (reporter cells), for 串联纳米抗体C11-1-F2 (Fc fusion) DVQLVESGGGLVQPGGSLRLSCAASESLLRLYAMGWYRQLPGQEREWVAIHTTSDTTNYRDSVKGRFTLSRDVATNTIYLQMTSLKPEDTAVYYCHVTSMRDSQNYWGQGTQVTVSSGGGGSGGGGSGGGGSQVQLVESGGGLVQPGGSMRLSCAASTIGLSIYSGAWYRQAAGKQRELVARITRRGVTNYADSVKGRFTISKDNAKNTVSLEMNSLKPEDTAVYYCNVGGEDGYWGQGTQVTVSS 1.16
